Listing of entries alongside the reported phosphorylation enrichment.
- Tested on: c-Abl (mouse);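 note: 11-residue human phosphosite peptides and single-mutation variants displayed on the E. coli surface, counted by deep sequencing, each peptide's frequency after selection divided by its frequency in the unselected input library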;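 note: frequency after pTyr selection over input frequency; kinase dosed for 20-30% of maximal phosphorylation in three min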
- run.description: phosphorylation enrichment, bacterial display (enrichment ratio); higher = better substrate or ligand; peptides without Tyr show the background

Previously resolved entries follow.
| residue.sequence | phosphorylation enrichment |
| --- | --- |
| QDRTFYESVRT [SPEN_Y633_YF] | 0.717 |
| FESPRYLQVRI [FANCA_Y488_H492R] | 0.68 |
| SPDMLYQFLKQ [RPAP3_Y567_YF] | 0.695 |
| LQLLGYRPVFS [CHST6_Y358_YF] | 0.865 |
| AESPEYVHMFT [FAM111A_Y511_YF] | 0.703 |
| VDDEIYFFRKP [PBRM1_Y1289_YF] | 1.35 |
| KCCCIYEKPRA [PPP1R11_Y64] | 7.54 |

Now for another entry.
phosphorylation enrichment lookup needed for VKALKYKSMKI [ITGA11_Y1098_L1093V] , thanks.
0.472
